Molecular target: T1, ZH 08 as periplasmic ABD fusion AQHDEALE-[ZH 08]-VDYV-[ABD]-YVPG (Streptococcus strain G148, UniProt P19909 254-299, limits assumed)
T1 construct: domain: GA3
Assay: SPR (Biacore 2000) screening; periplasmic Z-ABD captured on anti-ABD antibody, 200 nM boxA(disulfide); 1:1 model
pKd: −log10 of the molar value.
Observation type: pKd

Input: Give reported pKd value for boxA(disulfide), disulfide linked form of A-box domain of HMGB1 (other, disulfide C23-C45, also called b-boxA(disulfide)) MGKGDPKKPRGKMSSYAFFVQTCREEHKKKHPDASVNFSEFSKKCSERWKTMSAKEKGKFEDMAKADKARYEREMKTYIPPKGETKKKF
Output: ~7.51

Recorded values, source patent US20220389066A1.
